- Test system: breast cancer cell line HCC1954
- assay info: Cytotoxicity test of conjugate LDC10B
- Format: cell-based, human
- measurement parameters: HCC1954, Incubation Time 30 min
- Excerpt: Culture medium: RPMI 1640 Medium, no folic acid […] 5) Each plate was read at 490 nm on a microplate reader, and the cell survivals were compared for test cells with or without the treatment of LDC conjugates. […]
pIC50: −log10 of the molar value. Square brackets hold non-standard residues; d marks the D form. Peptide text beside a SMILES is read from it. * marks the point of attachment. Dolaproine = CO[C@@H]([C@@H]1CCCN1)[C@@H](C)C(=O)O; Dil = CC[C@H](C)[C@H](NC)[C@@H](CC(=O)O)OC; X1 = C[C@@H](N*)[C@@H](O)c1ccccc1; NMeV = CN[C@H](C(=O)O)C(C)C

compound	subject of test	pIC50
CC[C@H](C)[C@@H]([C@@H](CC(=O)N1CCC[C@H]1[C@H](OC)[C@@H](C)C(=O)N[C@H](C)[C@@H](O)c1ccccc1)OC)N(C)C(=O)[C@@H](NC(=O)[C@@H](NC)C(C)C)C(C)C [MMAE] (H-[NMeV]V[Dil][Dolaproine]-X1)	breast cancer cell line HCC1954	9.35

###

- Tested on: human gastric cancer cell line GTL-16
- assay info: Cytotoxicity test of conjugate LDC13B
- Format: cell-based
- measurement parameters: GTL-16, incubated 15-30 min, then 2-3 days
Square brackets hold non-standard residues; d marks the D form. Peptide text beside a SMILES is read from it. * marks the point of attachment. Dolaproine = CO[C@@H]([C@@H]1CCCN1)[C@@H](C)C(=O)O; Dil = CC[C@H](C)[C@H](NC)[C@@H](CC(=O)O)OC; X1 = C[C@@H](N*)[C@@H](O)c1ccccc1; NMeV = CN[C@H](C(=O)O)C(C)C
outcome measure: IC50 (nM)

compound	outcome measure	result value
CC[C@H](C)[C@@H]([C@@H](CC(=O)N1CCC[C@H]1[C@H](OC)[C@@H](C)C(=O)N[C@H](C)[C@@H](O)c1ccccc1)OC)N(C)C(=O)[C@@H](NC(=O)[C@@H](NC)C(C)C)C(C)C [MMAE] (H-[NMeV]V[Dil][Dolaproine]-X1)	IC50	6.38

###

- Test system: human lung cancer cell H1299
- assay info: Cytotoxicity test of conjugate LDC10B
- Assay type: cell-based
- measurement parameters: H1299, Incubation Time 30 min
pIC50: −log10 of the molar value. Square brackets hold non-standard residues; d marks the D form. Peptide text beside a SMILES is read from it. * marks the point of attachment. Dolaproine = CO[C@@H]([C@@H]1CCCN1)[C@@H](C)C(=O)O; Dil = CC[C@H](C)[C@H](NC)[C@@H](CC(=O)O)OC; X1 = C[C@@H](N*)[C@@H](O)c1ccccc1; NMeV = CN[C@H](C(=O)O)C(C)C
outcome measure: pIC50

molecule	subject of test	outcome measure	result value
CC[C@H](C)[C@@H]([C@@H](CC(=O)N1CCC[C@H]1[C@H](OC)[C@@H](C)C(=O)N[C@H](C)[C@@H](O)c1ccccc1)OC)N(C)C(=O)[C@@H](NC(=O)[C@@H](NC)C(C)C)C(C)C [MMAE] (H-[NMeV]V[Dil][Dolaproine]-X1)	human lung cancer cell H1299	pIC50	9.07

###

- Tested on: melanoma cell line A375
- assay info: Cytotoxicity test of conjugate LDC1013
- Type: cell-based
- measurement parameters: A375, incubated 15-30 min, then 2-3 days
Square brackets hold non-standard residues; d marks the D form. Peptide text beside a SMILES is read from it. * marks the point of attachment. Dolaproine = CO[C@@H]([C@@H]1CCCN1)[C@@H](C)C(=O)O; Dil = CC[C@H](C)[C@H](NC)[C@@H](CC(=O)O)OC; X1 = C[C@@H](N*)[C@@H](O)c1ccccc1; NMeV = CN[C@H](C(=O)O)C(C)C

compound	IC50
CC[C@H](C)[C@@H]([C@@H](CC(=O)N1CCC[C@H]1[C@H](OC)[C@@H](C)C(=O)N[C@H](C)[C@@H](O)c1ccccc1)OC)N(C)C(=O)[C@@H](NC(=O)[C@@H](NC)C(C)C)C(C)C [MMAE] (H-[NMeV]V[Dil][Dolaproine]-X1)	85 nM
